- ASSAY SYSTEM: hNav1.7 (Homo sapiens (Human))
- Sequence (Q15858 other isoform, or with tags, fused parts or gaps): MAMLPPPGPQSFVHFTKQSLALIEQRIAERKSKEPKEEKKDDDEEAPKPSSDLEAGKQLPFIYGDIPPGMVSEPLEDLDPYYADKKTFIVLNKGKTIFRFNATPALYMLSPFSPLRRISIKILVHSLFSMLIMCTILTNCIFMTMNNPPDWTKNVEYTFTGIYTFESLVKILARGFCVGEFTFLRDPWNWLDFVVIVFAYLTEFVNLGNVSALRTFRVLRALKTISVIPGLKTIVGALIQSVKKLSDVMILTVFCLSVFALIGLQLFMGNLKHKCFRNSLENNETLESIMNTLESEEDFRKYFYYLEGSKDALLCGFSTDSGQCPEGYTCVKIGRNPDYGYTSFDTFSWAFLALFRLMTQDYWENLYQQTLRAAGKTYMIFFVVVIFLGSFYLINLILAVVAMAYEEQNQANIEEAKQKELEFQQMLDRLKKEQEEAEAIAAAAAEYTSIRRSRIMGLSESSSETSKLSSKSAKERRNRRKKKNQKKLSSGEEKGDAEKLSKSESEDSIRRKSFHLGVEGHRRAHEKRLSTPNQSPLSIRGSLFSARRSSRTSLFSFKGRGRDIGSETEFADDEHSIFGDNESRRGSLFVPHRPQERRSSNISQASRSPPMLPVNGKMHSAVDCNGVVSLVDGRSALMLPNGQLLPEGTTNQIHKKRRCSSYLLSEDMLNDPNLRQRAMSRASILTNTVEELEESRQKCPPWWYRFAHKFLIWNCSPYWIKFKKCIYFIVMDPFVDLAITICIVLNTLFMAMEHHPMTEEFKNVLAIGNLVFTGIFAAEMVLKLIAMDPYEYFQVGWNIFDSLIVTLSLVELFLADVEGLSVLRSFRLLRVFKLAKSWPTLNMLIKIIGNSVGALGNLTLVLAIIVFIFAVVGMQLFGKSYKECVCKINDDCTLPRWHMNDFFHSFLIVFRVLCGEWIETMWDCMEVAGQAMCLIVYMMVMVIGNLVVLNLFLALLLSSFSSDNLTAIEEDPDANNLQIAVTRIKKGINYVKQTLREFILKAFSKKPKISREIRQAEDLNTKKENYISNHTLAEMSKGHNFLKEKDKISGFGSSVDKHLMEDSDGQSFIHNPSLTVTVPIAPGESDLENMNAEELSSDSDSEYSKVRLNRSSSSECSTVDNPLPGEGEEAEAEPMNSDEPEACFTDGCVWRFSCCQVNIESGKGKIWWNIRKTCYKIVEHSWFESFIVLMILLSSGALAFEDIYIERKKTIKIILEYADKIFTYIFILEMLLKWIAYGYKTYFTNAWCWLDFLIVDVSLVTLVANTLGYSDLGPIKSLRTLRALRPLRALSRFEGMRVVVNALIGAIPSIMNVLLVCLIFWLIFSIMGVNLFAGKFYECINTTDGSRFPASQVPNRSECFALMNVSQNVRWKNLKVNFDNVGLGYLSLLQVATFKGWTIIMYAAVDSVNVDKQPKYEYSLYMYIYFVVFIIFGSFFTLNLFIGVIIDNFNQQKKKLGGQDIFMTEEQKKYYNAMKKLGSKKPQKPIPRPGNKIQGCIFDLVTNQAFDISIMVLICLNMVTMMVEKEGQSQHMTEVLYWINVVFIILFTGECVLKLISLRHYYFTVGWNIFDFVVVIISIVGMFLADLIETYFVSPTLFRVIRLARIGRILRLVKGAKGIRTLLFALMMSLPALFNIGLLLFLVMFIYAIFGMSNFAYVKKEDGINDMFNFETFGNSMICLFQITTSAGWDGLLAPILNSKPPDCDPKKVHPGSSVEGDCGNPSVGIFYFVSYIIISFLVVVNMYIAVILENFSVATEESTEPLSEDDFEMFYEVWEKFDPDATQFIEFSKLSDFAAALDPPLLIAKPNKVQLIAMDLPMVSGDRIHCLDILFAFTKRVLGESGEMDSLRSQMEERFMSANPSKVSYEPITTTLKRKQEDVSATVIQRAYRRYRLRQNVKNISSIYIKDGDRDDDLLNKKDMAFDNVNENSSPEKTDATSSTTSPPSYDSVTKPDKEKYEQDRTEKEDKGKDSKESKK
- Sequence (Q07699 19-218 partner): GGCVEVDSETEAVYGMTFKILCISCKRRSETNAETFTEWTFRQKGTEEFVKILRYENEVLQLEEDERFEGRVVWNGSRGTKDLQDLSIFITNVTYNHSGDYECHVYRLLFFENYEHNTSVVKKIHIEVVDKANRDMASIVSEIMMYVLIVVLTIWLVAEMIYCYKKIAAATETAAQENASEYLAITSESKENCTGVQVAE
- ASSAY EXPLANATION: Tritiated sulfonamide competitive binding to membranes from cells expressing hNav1.7 and the β1 subunit;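 further: Filter-bound radioactivity counted by liquid scintillation, nonspecific binding defined with excess unlabelled ligand, IC50 fitted to percent inhibition of specific binding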
- CONDITION INFO: read-out: Ligand Binding Assay; 100 pM [3H]compound, membranes with hNav1.7 and β1 subunit, 18 h, room temperature
Structures can show the parent of a compound that is named as a salt.
MEASURED PROPERTY: IC50
In your response, put the unit directly after the numeric value.

Request: Could you tell me which IC50 is on file for O=C(NS(=O)(=O)C1CC1)c1cc(C2CC2)c(OCC2CCN(C(c3cccc(Cl)c3)c3cccc(Cl)c3)CC2)cc1F [Example 401, trifluoroacetic acid salt] ?
Response: 3.1 nM

Request: Query (compound): CS(=O)(=O)NC(=O)c1cc(C2CC2)c(O[C@@H]2CCCN(Cc3cc(Cl)cc(OC(F)(F)F)c3)C2)cc1F [Example 422, trifluoroacetic acid salt] ; field requested: IC50
Response: 1.3 nM

Request: Find the recorded IC50 belonging to CS(=O)(=O)NC(=O)c1cc(Cl)c(OCC2CCN(Cc3cc(Cl)cc(OC(F)(F)F)c3)CC2)cc1F [Example 406, trifluoroacetic acid salt] and report it.
Response: 17.6 nM
